target: B-Raf (Homo sapiens (Human), UniProt P15056); test: Raf kinase assay (B-Raf), [33P] incorporation into MEK1(K97R); format: biochemical; conditions: 1.0 μM compound; read-out: B-Raf inhibition at 1.0 μM
Sequence (P15056 whole entry): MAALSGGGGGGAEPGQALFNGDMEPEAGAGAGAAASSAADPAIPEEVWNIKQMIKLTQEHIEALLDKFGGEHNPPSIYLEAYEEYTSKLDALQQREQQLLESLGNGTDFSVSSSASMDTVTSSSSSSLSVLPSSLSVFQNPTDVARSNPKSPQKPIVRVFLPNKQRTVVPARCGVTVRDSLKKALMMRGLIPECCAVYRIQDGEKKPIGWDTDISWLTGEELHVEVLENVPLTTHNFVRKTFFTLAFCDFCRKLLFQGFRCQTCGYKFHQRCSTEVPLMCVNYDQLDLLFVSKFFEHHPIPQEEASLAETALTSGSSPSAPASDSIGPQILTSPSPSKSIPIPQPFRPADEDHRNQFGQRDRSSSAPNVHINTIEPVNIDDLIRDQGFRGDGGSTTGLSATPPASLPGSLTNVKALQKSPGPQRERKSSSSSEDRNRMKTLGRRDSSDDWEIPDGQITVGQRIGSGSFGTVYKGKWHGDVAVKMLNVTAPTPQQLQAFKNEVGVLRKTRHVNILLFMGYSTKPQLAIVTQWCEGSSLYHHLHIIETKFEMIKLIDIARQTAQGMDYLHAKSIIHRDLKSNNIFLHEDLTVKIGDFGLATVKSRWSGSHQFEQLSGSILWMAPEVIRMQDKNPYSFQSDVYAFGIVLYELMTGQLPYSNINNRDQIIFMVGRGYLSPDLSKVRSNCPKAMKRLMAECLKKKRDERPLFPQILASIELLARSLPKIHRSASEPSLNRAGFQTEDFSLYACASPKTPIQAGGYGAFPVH
In this section we review reported inhibition at 1 µM values for a set of compounds.
Your answer should be a plain number; it is taken to be in %.

{"TEST SMILES": "COc1cc(-c2ccc3ncnc(Nc4cc(O)c(C)cc4F)c3c2)ccc1O", "inhibition at 1 µM [%]": 92.4}
{"TEST SMILES": "COc1cc(-c2ccc3ncnc(Nc4ccc5cn[nH]c5c4)c3c2)ccc1O", "inhibition at 1 µM [%]": 51.6}
{"TEST SMILES": "COc1cc(-c2ccc3ncnc(Nc4ccccc4C(=O)O)c3c2)ccc1O", "inhibition at 1 µM [%]": 15.6}
{"TEST SMILES": "COc1cc(-c2ccc3ncc(C#N)c(Nc4cccc5[nH]ncc45)c3c2)ccc1O", "inhibition at 1 µM [%]": 24}
{"TEST SMILES": "COc1cc(-c2ccc3ncnc(Nc4ccc(F)cc4)c3c2)ccc1O", "inhibition at 1 µM [%]": 44.4}

Prompt: Requested field: inhibition at 1 µM. Item: "COc1cc(-c2ccc3ncnc(Nc4cc(NS(C)(=O)=O)c(F)cc4F)c3c2)ccc1O"
Response: 37.2

Prompt: Would you mind doing "COc1cc(-c2ccc3ncnc(Nc4ccc(S(N)(=O)=O)cc4)c3c2)ccc1O" as well?
Response: 64.4

Prompt: Okay, and "COc1cc(-c2ccc3ncnc(Nc4c(F)cccc4F)c3c2)ccc1O" ?
Response: 57.7

Prompt: Try the compound "Oc1c(F)ccc(Nc2ncnc3ccc(-c4ccc5[nH]ncc5c4)cc23)c1F"
Response: 94.2

Prompt: Same question, "COc1cc(-c2ccc3ncnc(Nc4cccc(NS(C)(=O)=O)c4)c3c2)ccc1O" this time
Response: 64.1

Prompt: Ok, now "COc1cc(-c2ccc3ncnc(Nc4c(C)ccc5[nH]ncc45)c3c2)ccc1O"
Response: 8.2

Prompt: And "COc1cc(-c2ccc3ncnc(Nc4cccc5c4cnn5C)c3c2)ccc1O" ?
Response: 61.1

Prompt: // next record "OCc1cccc(-c2ccc3ncnc(Nc4cccc5[nH]ncc45)c3c2)c1"
Response: 76.2

Prompt: Then what about the compound "c1ccc(-c2ccc3ncnc(Nc4cccc5[nH]ncc45)c3c2)cc1" ?
Response: 77.8

Prompt: Input "COc1cc(-c2ccc3ncnc(Nc4ccc(O)cc4)c3c2)ccc1O"
Response: 55.8

Prompt: For "NC(=O)c1cccc(-c2ccc3nccc(Nc4cccc5[nH]ncc45)c3c2)c1" then?
Response: 86.6

Prompt: Can you handle "O=S(=O)(Nc1ccc(-c2ccc3ncnc(Nc4ccccc4)c3c2)cc1)c1ccc(F)cc1" next?
Response: -6.5

Prompt: For "COc1cccc(-c2ccc3ncnc(Nc4cccc(O)c4)c3c2)c1" then?
Response: 84.3

====

target: FGFR1 kinase (Homo sapiens (Human), UniProt P11362); assay: FGFR1 kinase assay; type: biochemical
Sequence (P11362 478-767): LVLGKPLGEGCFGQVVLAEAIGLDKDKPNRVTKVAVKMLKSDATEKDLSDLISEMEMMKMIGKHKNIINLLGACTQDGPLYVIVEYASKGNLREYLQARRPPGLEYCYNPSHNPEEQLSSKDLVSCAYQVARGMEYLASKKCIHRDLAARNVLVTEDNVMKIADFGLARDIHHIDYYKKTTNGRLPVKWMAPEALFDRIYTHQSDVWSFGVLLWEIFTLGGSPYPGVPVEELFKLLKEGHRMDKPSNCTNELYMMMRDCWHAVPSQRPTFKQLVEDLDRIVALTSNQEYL
ASSAY READOUT: IC50 (nM)
Dear colleague, please return just the value in nM, with no unit written.

{"TEST SMILES": "COc1cc(-c2ccc3ncnc(Nc4ccc(O)cc4)c3c2)ccc1O", "SYSTEM UNDER TEST": "FGFR1 kinase (Homo sapiens (Human), UniProt P11362)", "IC50, nM": 1440}
{"TEST SMILES": "COc1cc(-c2ccc3ncnc(Nc4cccc(O)c4)c3c2)ccc1O", "SYSTEM UNDER TEST": "FGFR1 kinase (Homo sapiens (Human), UniProt P11362)", "IC50, nM": 413}

API: the following record is the query input.
Prompt: // lookup IC50 | system=FGFR1 kinase (Homo sapiens (Human), UniProt P11362) | key= "COc1cc(-c2ccc3ncnc(Nc4cc(O)ccc4F)c3c2)ccc1O"
Response: 131

Values were extracted from patent US8785459B2.
